Dear all, this message contains MIC results, target or system Mycobacterium smegmatis ATCC 114.

[
  {
    "COMPOUND": "CC[C@H]1OC(=O)[C@H](C)[C@@H](O[C@H]2C[C@@](C)(OC)[C@@H](O)[C@H](C)O2)[C@H](C)[C@@H](O[C@@H]2O[C@H](C)C[C@H](N(C)C)[C@H]2O)[C@](C)(O)C[C@@H](C)C(=O)[C@H](C)[C@@H](O)[C@]1(C)O [Ery. A, Erythromycin A, reference compound]",
    "SCALE_UNIT": "µg/mL",
    "MIC": 3.1
  },
  {
    "COMPOUND": "C=C(C)CN(C)[C@H]1C[C@@H](C)O[C@@H](O[C@@H]2[C@@H](C)C(=O)[C@@H](C)C(=O)O[C@H](CC)[C@@]3(C)OC(=O)N[C@@H]3[C@@H](C)C(=O)[C@H](C)C[C@@]2(C)OCC=Cc2cnc3ccccc3c2)[C@@H]1O [Example 19]",
    "SCALE_UNIT": "µg/mL",
    "MIC": 0.2
  },
  {
    "COMPOUND": "CCOC(=O)CN(C)[C@H]1C[C@@H](C)O[C@@H](O[C@@H]2[C@@H](C)C(=O)[C@@H](C)C(=O)O[C@H](CC)[C@@]3(C)OC(=O)N[C@@H]3[C@@H](C)C(=O)[C@H](C)C[C@@]2(C)OCC=Cc2cnc3ccccc3c2)[C@@H]1O [Example 5]",
    "SCALE_UNIT": "µg/mL",
    "MIC": 25
  },
  {
    "COMPOUND": "CC[C@H]1OC(=O)[C@H](C)C(=O)[C@H](C)[C@@H](O[C@@H]2O[C@H](C)C[C@H](N(C)CC3CC3)[C@H]2O)[C@](C)(OCC=Cc2cnc3ccccc3c2)C[C@@H](C)C(=O)[C@H](C)[C@H]2NC(=O)O[C@@]21C [Example 15]",
    "SCALE_UNIT": "µg/mL",
    "MIC": 0.78
  }
]

====

Dear all, this message contains MIC results, target or system Mycobacterium smegmatis ATCC 114.

[
  {
    "SMILES": "CC[C@H]1OC(=O)[C@H](C)C(=O)[C@H](C)[C@@H](O[C@@H]2O[C@H](C)C[C@H](NC)[C@H]2OC(C)=O)[C@](C)(OCC=Cc2cnc3ccccc3c2)C[C@@H](C)C(=O)[C@H](C)[C@H]2NC(=O)O[C@@]21C",
    "MIC": "3.1 µg/mL"
  },
  {
    "SMILES": "CC[C@H]1OC(=O)[C@H](C)C(=O)[C@H](C)[C@@H](O[C@@H]2O[C@H](C)C[C@H](N(C)C(C)=O)[C@H]2O)[C@](C)(OCC=Cc2cnc3ccccc3c2)C[C@@H](C)C(=O)[C@H](C)[C@H]2NC(=O)O[C@@]21C",
    "MIC": "25 µg/mL"
  }
]

====

test system: Streptococcus pyogenes EES61
TEST_READOUT: MIC (µg/mL)

[
  {
    "SMILES": "CC[C@H]1OC(=O)[C@H](C)C(=O)[C@H](C)[C@@H](O[C@@H]2O[C@H](C)C[C@H](NC)[C@H]2OC(C)=O)[C@](C)(OCC=Cc2cnc3ccccc3c2)C[C@@H](C)C(=O)[C@H](C)[C@H]2NC(=O)O[C@@]21C",
    "VALUE_RELATION_SIGN": "≤",
    "VAL": 0.005
  },
  {
    "SMILES": "CC[C@H]1OC(=O)[C@H](C)C(=O)[C@H](C)[C@@H](O[C@@H]2O[C@H](C)C[C@H](N(C)CC3CC3)[C@H]2O)[C@](C)(OCC=Cc2cnc3ccccc3c2)C[C@@H](C)C(=O)[C@H](C)[C@H]2NC(=O)O[C@@]21C",
    "VALUE_RELATION_SIGN": "=",
    "VAL": 0.02
  }
]
